The measurements presented in this section are drawn from PubChem BioAssay (NCI).

Measured growth of individual entries
# System: EKVX NSCLC
# Run description: NCI-60 one-dose screen, 48 h (100 = growth as untreated, 0 = no growth, -100 = all killed)
# Cond: 10 µM unless noted
The panel holds about 83,000 compounds, 20% with a hit somewhere; the sample as a whole holds those more often.

Molecule: Cn1cc(-c2cc3nc(-c4c[nH]c5ccc(Cl)cc45)cc(N)n3n2)c2ccccc21
growth, %: -88.6
--
Molecule: CC1=C(C(=O)c2ccccc2)C(c2cccc(Cl)c2Cl)n2c(nc3ccccc32)N1 (stereo not drawn)
growth, %: 46.3
--
Molecule: O=C(c1ccc(Cl)cc1)c1ccc(OCCCN2CCN(c3ccncc3)CC2)cc1
growth, %: 32.6
--
Molecule: Cc1c(C(=O)NNC(=O)c2ccc(Cl)cc2)nnn1-c1ccc(Cl)cc1
growth, %: 91.5
--
Molecule: COc1c(F)ccc(C(=O)Nc2ccc3nc(NC(=O)C4CCCN(S(=O)(=O)c5cccc(C(F)(F)F)c5)C4)sc3c2)c1F (stereo not drawn)
growth, %: 94.5
--
Molecule: CN1C(=O)/C(=C/c2ccc(C(=O)Nc3ncc(Cc4ccc(Cl)cc4Cl)s3)cc2)SC1=S
growth, %: 63
--
Molecule: Nc1n[nH]c2cccc(C#Cc3cccc(NC(=O)c4cccc(Cl)c4)c3)c12
growth, %: 44.9
--
Molecule: O=C(CSc1nc2ccccc2c(=O)[nH]1)NCCN1CCCCC1
growth, %: 93.7
